Tested on: resistant clinical isolates of P. aeruginosa
Assay: MIC against resistant clinical isolates of P. aeruginosa
Format: cell-based
Conditions: Pseudomonas aeruginosa, P. aeruginosa strain, Table 2 column 3, head prints 27853
Procedure: The microbial strains used in this study were obtained from the collection of the Gause Institute of New Antibiotics. […] Storage was carried out in accordance with CLSI guidelines. […] Activity was evaluated by determining the minimum inhibitory concentration (MIC) values using the microdilution method in Mueller–Hinton Broth (Beckton and Dickinson, Le Pont-de-Claix, France), in accordance with the standard procedure for assessing the antimicrobial susceptibility of microorganisms. […]
EXPERIMENTAL_READOUT: MIC (µg/mL)

STRUCTURE_AS_SMILES	EXPERIMENTAL_READOUT	UOM	LIMIT_QUALIFIER	VALUE_OBSERVED
NCCCNC[C@H]1O[C@H](O[C@@H]2[C@@H](O)[C@H](O[C@H]3O[C@H](CN)[C@@H](O)C[C@H]3N)[C@@H](N)C[C@H]2N)[C@H](O)[C@@H](N)[C@@H]1O	MIC	µg/mL	=	32
NC[C@H]1O[C@H](O[C@H]2[C@H](O)[C@@H](O[C@H]3O[C@H](CO)[C@@H](O)[C@H](N)[C@H]3O)[C@H](N)C[C@@H]2N)[C@H](N)C[C@@H]1O	MIC	µg/mL	>	128
N=C(N)NCCCNC[C@H]1O[C@H](O[C@@H]2[C@@H](O)[C@H](O[C@H]3O[C@H](CN)[C@@H](O)C[C@H]3N)[C@@H](N)C[C@H]2N)[C@H](O)[C@@H](N)[C@@H]1O	MIC	µg/mL	=	16
